Assay: Phase 1 SAD (Part A) plasma and urine pharmacokinetics in healthy subjects
Assay type: in vivo, human
Conditions: human; plasma, single oral dose 100 mg, n = 6; read-out: Tmax, median (min, max)
Description: The plasma PK parameters of the compound of formula (I) calculated following single (Part A) or multiple (Parts B) oral doses. […] For all subjects, blood samples for the determination of plasma concentration of the compound of formula (I) were collected at scheduled time points. Blood samples were analyzed to calculate different plasma PK parameters in both part A and part B. […]
PROPERTY NAME: Tmax (h)
Write it as a number; the unit h goes unstated.

The recorded Tmax for entry CN(C)C/C=C/C(=O)N1CC(COc2cc(-c3ccc(O)cc3)cc3[nH]ncc23)C1 equals 1

----------
Test: Phase 1 MAD (Part B) plasma pharmacokinetics in healthy subjects
Assay type: in vivo, human
Details: both sexes, human, oral; plasma, Day 10 (morning dose), 300 mg BID, n = 6; read-out: t1/2, mean (SD) (converted)
PROPERTY NAME: half-life (h)
Field format: number, assumed h, no unit text.

Value of measured half-life for the entry CN(C)C/C=C/C(=O)N1CC(COc2cc(-c3ccc(O)cc3)cc3[nH]ncc23)C1 [compound of formula (I)] : 19.2

----------
Assay: Phase 1 pharmacokinetics across all SAD and MAD cohorts
Type: in vivo
Settings: human, plasma, oral; across all doses; read-out: highest observed Cmax
PROPERTY NAME: Cmax
Answer by giving the amount and then stating its unit.

Noted for CN(C)C/C=C/C(=O)N1CC(COc2cc(-c3ccc(O)cc3)cc3[nH]ncc23)C1 : its Cmax reads 34.3 ng/mL

----------
Assay: Phase 1 SAD (Part A) plasma and urine pharmacokinetics in healthy subjects
Format: in vivo, human
Conditions: human; plasma, single oral dose 1000 mg, n = 6; read-out: Tmax, median (min, max)
PROPERTY NAME: Tmax

GET /value?item= CN(C)C/C=C/C(=O)N1CC(COc2cc(-c3ccc(O)cc3)cc3[nH]ncc23)C1 &field=Tmax returns 1 h

----------
Test: Phase 1 MAD (Part B) plasma pharmacokinetics in healthy subjects
Assay type: in vivo, human
Conditions: both sexes, human, oral; plasma, Day 10 (morning dose), 1000 mg BID, n = 6; read-out: Tmax,ss, median (min, max)
PROPERTY NAME: Tmax (h)
Your answer should be a plain number; it is taken to be in h.

Documented Tmax of CN(C)C/C=C/C(=O)N1CC(COc2cc(-c3ccc(O)cc3)cc3[nH]ncc23)C1 : 1
